Taken from a melting point compilation (Tetko et al.).

Form field: melting point (one value per entry).

{"MOLECULE": "Oc1c(F)c(F)c2c(F)c(F)c(F)c(F)c2c1F", "melting point": "120 to 124 °C"}
{"MOLECULE": "COc1ccc(Br)c(OC)c1C(=O)O", "melting point": "146 to 148 °C"}
{"MOLECULE": "O=c1ccnc[nH]1", "melting point": "163 to 168 °C"}
{"MOLECULE": "CCOC(=O)c1c(N)sc(C)c1-c1ccccc1", "melting point": "92 to 93 °C"}
{"MOLECULE": "N#CC1(c2ccc(F)cc2Cl)CCCCC1", "melting point": "58 to 65 °C"}
{"MOLECULE": "O=C1C=C(Nc2ccccc2)CCC1", "melting point": "178 to 182 °C"}
{"MOLECULE": "C=C1C(=O)C23C(OC)CC4C5(C)CCCC4(COC5=O)C2C(OC(C)=O)CC1C3O (stereo not drawn)", "melting point": "126 to 127 °C"}
{"MOLECULE": "Cn1nc([N+](=O)[O-])c2c(=O)cc[nH]c21", "melting point": "222 to 224 °C"}

* * *

TEST_READOUT: melting point

{"CHEMICAL_SMILES": "CN(N)c1cnc2ccccc2n1", "RESULT": "107 to 108 °C"}
{"CHEMICAL_SMILES": "NC(=O)NN=C(c1cc2ccccc2o1)c1cc2ccccc2o1", "RESULT": "189 to 190 °C"}
{"CHEMICAL_SMILES": "O=C(O)[C@@H]1Cc2ccccc2CN1C(=O)OCc1ccccc1", "RESULT": "137 to 141 °C"}
{"CHEMICAL_SMILES": "O=Cc1ccc(N2CCCC2)cn1", "RESULT": "101 to 102 °C"}
{"CHEMICAL_SMILES": "NCc1cc2ccccc2s1", "RESULT": "58 to 59 °C"}
{"CHEMICAL_SMILES": "Cc1ccc(/C=C(\\C#N)c2nc(-c3ccccc3)cs2)cc1", "RESULT": "78 to 80 °C"}

* * *

# note: boundary value 80 °C maps to n; melting point below it maps to y

{"MOLECULE": "CCCCCCCCC=CCCCCCCCC(=O)OCC", "CAT": "y"}
{"MOLECULE": "O=[N+]([O-])c1c(O)ncnc1O", "CAT": "n"}
{"MOLECULE": "CC(=O)C(C)=NO", "CAT": "y"}
{"MOLECULE": "CCCCCCCCCCCC(=O)CC", "CAT": "y"}
{"MOLECULE": "CCCC(C)(C)C(C)(C)C", "CAT": "y"}
{"MOLECULE": "Cc1cc2occc(=O)c2cc1Cl", "CAT": "n"}
{"MOLECULE": "CCC(Br)(CC)C(=O)NC(N)=O", "CAT": "n"}
{"MOLECULE": "CCOC(=O)C(=O)C(C#N)c1ccccc1 (stereo not given)", "CAT": "n"}
{"MOLECULE": "O=[N+]([O-])c1cccc2cccc(Cl)c12", "CAT": "n"}
{"MOLECULE": "CCN(CC)CCC1(c2ccccc2)C(=O)Oc2ccccc21 (stereo not given)", "CAT": "y"}
{"MOLECULE": "Cc1ccncc1/C=N/N(C)C", "CAT": "y"}
{"MOLECULE": "Cc1cc2nc3c(=O)[nH]c(=O)nc-3n(C)c2cc1C", "CAT": "n"}
{"MOLECULE": "Cn1c(/C(C#N)=N/Nc2ccc(Cl)cc2)nc2ccccc21", "CAT": "n"}
{"MOLECULE": "CSc1ccc(C#N)cc1", "CAT": "y"}
{"MOLECULE": "N#Cc1ccnc(Br)c1", "CAT": "y"}
{"MOLECULE": "CCCCCCCCCCCCCCCCCCC(C)c1ccccc1 (stereo not given)", "CAT": "y"}
{"MOLECULE": "CCc1nn(CCCN2CCN(c3cccc(Cl)c3)CC2)c(=O)n1CCOc1ccccc1", "CAT": "n"}
{"MOLECULE": "CCCCOc1ccc(-c2nnc3n2NC(c2ccco2)S3)cc1 (stereo not given)", "CAT": "n"}
{"MOLECULE": "S=C(SSC(=S)N1CCCCC1)N1CCCCC1", "CAT": "n"}
